target: NHERF4_4, Q86UT5; test: holdup assay; design: key: below the threshold = too weak to quantify, mostly under pKd 3.1 to 4; details: plain residues with an end cap or a label only (N-terminal biotin on a linker: ado-ado)
Sequence (Q86UT5 464-550): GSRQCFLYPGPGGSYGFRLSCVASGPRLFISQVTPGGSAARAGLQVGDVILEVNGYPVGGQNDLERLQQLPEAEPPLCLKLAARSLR
experimental.endpoint: pKd

| binder | pKd |
| --- | --- |
| LPPPESESKV [KCNJ9, Q92806] | below the threshold |
| PSDSVGKDVF [EGLN1, Q9GZT9] | below the threshold |
| TNSKQGETTV [FZD1, Q9UP38] | 3.95 |
| QQGLLPHSSC [TYRO3, Q06418] | below the threshold |
| PALKNGQYWV [CSPG4, Q6UVK1] | 4.05 |

Okay, here is my list. What is pKd for each of these?
1. GSQSQVETEA [FKBP4, Q02790]
2. QLGSPTADLA [SIPA1, Q96FS4]
3. PLATCDETSI [SEMA4F, O95754]
4. AHGSTRDQSI [KCNB1, Q14721]
5. QRYPGNQTTC [CCL24, O00175]
6. VYEVPVETKF [SLC26A3, P40879]
7. KKTPVSRSHL [SLC22A3, O75751]
8. HDDYFYHDEL [RCN2, Q14257]

Out:
below the threshold
below the threshold
below the threshold
4.01
below the threshold
below the threshold
below the threshold
below the threshold
